# TGT: T1, HLA-A*02:01 (human)
# T1 construct: MHC monomers first loaded with a UV-sensitive peptide (not identified) that is cleaved by UV light and exchanged for the test peptide; captured on streptavidin plates, detected with anti-β2m; also called peptide-receptive MHC molecules; MHC class I
# PROTOCOL NOTES: UV-ligand exchange + anti-b2m ELISA; peptide exchange yield grade (+ >=10%, ++ >=20%, +++ >=50, ++++ >=75%)
PROPERTY: peptide exchange yield

// GLLQGKLALL (source gene NQO2) [GLLQGKLALL (SEQ ID NO: 86)] : peptide exchange yield value = 20 to 50%

According to the records, this binder YIQEVVQYI (source gene PLCB1) [YIQEVVQYI (SEQ ID NO: 23)] displays peptide exchange yield of 50 to 75%

# peptide exchange yield of VLISVLQAI (source gene CYFIP2) [VLISVLQAI (SEQ ID NO: 108)] = 20 to 50%
